B1: FBXO3 (parent)
chain: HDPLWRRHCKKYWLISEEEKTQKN

variants of: B1; test: protein stability index of a GFP-peptide fusion (GPS, HEK-293T) (PSI 1-6); higher = more stable; details: c terminus: a fixed tail appended;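 note: lentivirally expressed fusions sorted by FACS into six bins by GFP to DsRed ratio, PSI derived from sequencing read proportions per bin multiplied by bin number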
Outcome: label 1 for protein stability index of at least 3; label 0 for anything lower.

K11I :: label 0
L4Y :: label 1
K10N :: label 1
W13R :: label 1

Qu. Hi, just wondering whether N24P shows protein stability index of 3 or higher.
Ans. label 1

Qu. Hi, just wondering whether L4Q shows protein stability index of 3 or higher.
Ans. label 1

Qu. Hi, just wondering whether K23R shows protein stability index of 3 or higher.
Ans. label 1

Qu. Hi, just wondering whether E18F shows protein stability index of 3 or higher.
Ans. label 0

Qu. Hi, just wondering whether E17M shows protein stability index of 3 or higher.
Ans. label 0

Qu. Hi, just wondering whether D2L shows protein stability index of 3 or higher.
Ans. label 0

Qu. Hi, just wondering whether E18A shows protein stability index of 3 or higher.
Ans. label 0

Qu. Hi, just wondering whether K20I shows protein stability index of 3 or higher.
Ans. label 0

Qu. Hi, just wondering whether K20L shows protein stability index of 3 or higher.
Ans. label 0

Qu. Hi, just wondering whether K20E shows protein stability index of 3 or higher.
Ans. label 1

Qu. Hi, just wondering whether E18G shows protein stability index of 3 or higher.
Ans. label 0

Qu. Hi, just wondering whether K20Y shows protein stability index of 3 or higher.
Ans. label 0

Qu. Hi, just wondering whether E19V shows protein stability index of 3 or higher.
Ans. label 0

Qu. Hi, just wondering whether C9R shows protein stability index of 3 or higher.
Ans. label 1

Qu. Hi, just wondering whether R7G shows protein stability index of 3 or higher.
Ans. label 1

Qu. Hi, just wondering whether Y12T shows protein stability index of 3 or higher.
Ans. label 1

Qu. Hi, just wondering whether T21M shows protein stability index of 3 or higher.
Ans. label 0
